- Study Target: human recombinant cathepsin C (Homo sapiens)
- Assay Name: In vitro inhibitory effect on human recombinant cathepsin C (h-gly-arg-amc substrate)
- Details: human recombinant cathepsin C 2 nM, 30 min preincubation at 25° C., substrate 100 μM; read-out: CatC IC50
Recorded Metric: IC50 (nM)
Expressed in nM, but write only the number.

Find the recorded IC50 belonging to CON1CCN(c2ccc(Nc3ncc(C)c(Nc4cccc(C(F)(F)F)c4)n3)nc2)CC1 and report it.
167

* * *

Form field: IC50 (one value per entry).
- Study Target: intracellular cathepsin C in THP-1 cells (Homo sapiens, UniProt P53634)
- Construct: endogenous in cells
- Sequence (P53634 25-463): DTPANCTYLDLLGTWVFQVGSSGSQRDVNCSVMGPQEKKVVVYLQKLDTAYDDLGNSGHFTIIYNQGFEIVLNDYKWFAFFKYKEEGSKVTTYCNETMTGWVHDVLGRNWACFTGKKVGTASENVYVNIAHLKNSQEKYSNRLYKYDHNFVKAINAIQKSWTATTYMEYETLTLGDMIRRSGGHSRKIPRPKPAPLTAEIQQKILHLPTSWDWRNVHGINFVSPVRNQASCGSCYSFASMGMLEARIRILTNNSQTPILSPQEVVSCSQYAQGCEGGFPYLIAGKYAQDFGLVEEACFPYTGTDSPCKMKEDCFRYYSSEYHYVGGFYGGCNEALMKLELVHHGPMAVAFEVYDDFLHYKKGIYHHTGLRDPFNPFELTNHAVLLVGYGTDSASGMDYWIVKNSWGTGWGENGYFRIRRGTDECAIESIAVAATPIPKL
- Assay Name: In vitro inhibitory effect on intracellular cathepsin C in THP-1 cells
- Details: 1 h incubation at 37° C., h-gly-arg-amc 200 μM, read-out: THP-1 CatC IC50
Expressed in µM, but write only the number.

{"Molecule": "CON1CCN(c2ccc(Nc3ncc(C)c(Nc4cccc(C(F)(F)F)c4)n3)nc2)CC1 [Compound 67]", "Recorded Metric": "IC50", "Measure Unit": "µM", "Test Result": 0.14}

Find the recorded IC50 belonging to CCCCN1CCN(c2ccc(Nc3ncc(Cl)c(Nc4cccc(C(F)(F)F)c4)n3)nc2)CC1 [Compound 48] and report it.
0.241

* * *

- Study Target: intracellular cathepsin C in U937 cells (Homo sapiens)
- Construct: endogenous in cells
- Sequence (P53634 25-463): as above
- Assay Name: In vitro inhibitory effect on intracellular cathepsin C in U937 cells
- Details: 1 h incubation at 37° C., h-gly-arg-amc 200 μM, read-out: U937 CatC IC50
Form field: IC50 (one value per entry).
Expressed in nM, but write only the number.

{"Compound": "CCCCN1CCN(c2ccc(Nc3ncc(Cl)c(Nc4cccc(C(F)(F)F)c4)n3)nc2)CC1 [Compound 48]", "IC50 / nM": 199}

Find the recorded IC50 belonging to CON1CCN(c2ccc(Nc3ncc(C)c(Nc4cccc(C(F)(F)F)c4)n3)nc2)CC1 [Compound 67] and report it.
156
